Provenance of the data: PubChem BioAssay (NCATS)

# Run Description: qHTS of pediatric cancer cell lines to identify multiple opportunities for drug repurposing: Primary screen for LAN-5 cells (AID 1347100); further: potency means the concentration at half of the fitted maximal effect
# Condition Parameters: LAN-5 neuroblastoma viability, CellTiter-Glo luminescence, 48 h; series mostly up to 46 µM
Inconclusive results are not listed. Calls of active or inactive are those of the source. The call rests on the fitted dose curve; in most records, active means well fitted cell-killing curve with a large enough effect; inconclusive means small, poorly fitted or top-dose-only effect; inactive means no such curve, though single readings can be large or run the other way.
Measured Quantity: Potency

[[record]]
compound = "CN(C)CCN(Cc1ccsc1)c1ccccn1"
measured_quantity = "Potency"
obs_value = "0.001 µM (active)"

[[record]]
compound = "Cc1cccc(N(C)C(=S)Oc2ccc3c(c2)C2CCC3C2)c1 (stereo not given)"
measured_quantity = "Potency"
obs_value = "inactive"

[[record]]
compound = "CCCCC(CC)CNC(=O)CC(C)OC(=O)CCC(=O)O (stereo not given)"
measured_quantity = "Potency"
obs_value = "inactive"

[[record]]
compound = "CN(C)CCN1CCN(c2cccc(Cl)c2)C1=O"
measured_quantity = "Potency"
obs_value = "inactive"

[[record]]
compound = "CC(C)=CCC/C(C)=C/CC/C(C)=C/C(=O)OCC(=O)[C@@]1(O)CC[C@H]2[C@@H]3CCC4=CC(=O)C=C[C@]4(C)[C@H]3[C@@H](O)C[C@@]21C"
measured_quantity = "Potency"
obs_value = "13.3 µM (active)"

[[record]]
compound = "CC(=O)c1cc2ccccc2s1"
measured_quantity = "Potency"
obs_value = "inactive"

[[record]]
compound = "CCCCC(=O)OCC(=O)[C@H]1[C@H](C)C[C@H]2[C@@H]3C[C@H](F)C4=CC(=O)C=C[C@]4(C)[C@@]3(F)[C@@H](O)C[C@@]21C"
measured_quantity = "Potency"
obs_value = "inactive"

[[record]]
compound = "Nc1cc(C(F)(F)F)ccc1S"
measured_quantity = "Potency"
obs_value = "inactive"

[[record]]
compound = "CC(=O)N(c1onc(C)c1C)S(=O)(=O)c1ccc(N)cc1"
measured_quantity = "Potency"
obs_value = "inactive"

[[record]]
compound = "Cc1ccc(/C=N/n2c(-c3ccccc3)csc2=S)cc1"
measured_quantity = "Potency"
obs_value = "inactive"


###

# Tested on: HeLa
# Run Description: Primary qHTS to identify gynecologic anti-cancer compounds using libraries of approved drugs and bioactive compounds (AID 1345084); further: nearly all actives have a fitted effect of over 55% in size
# Condition Parameters: Gynecologic cancer cell panel viability, ATPlite luminescence, 48 h; series mostly up to 57.5 µM
Inconclusive results are not listed. Active and inactive are the calls of the source. Calls follow the shape of the dose curve; as a rule, active = well fitted cell-killing curve with a large enough effect; inconclusive = small, poorly fitted or top-dose-only effect, or effect the other way; inactive = flat fitted curve, though single readings scatter.
Possible outcomes: active, inactive

[[record]]
compound = "CCNC(=O)NCCCOc1cccc(CN2CCCCC2)c1"
target_desc = "HeLa"
class_label = "inactive"

[[record]]
compound = "CC1(C)O[C@@H]2C[C@H]3[C@@H]4CCC5=CC(=O)C=C[C@]5(C)[C@@]4(F)[C@@H](O)C[C@]3(C)[C@]2(C(=O)CO)O1"
target_desc = "HeLa"
class_label = "inactive"

[[record]]
compound = "CC(NN)c1ccccc1 (stereo not given)"
target_desc = "HeLa"
class_label = "inactive"

[[record]]
compound = "CCOC(=O)N1CCC(Nc2ccc(Cl)cc2N)CC1"
target_desc = "HeLa"
class_label = "inactive"

[[record]]
compound = "CC(C)(C)CC(=O)OCC(=O)[C@@]1(O)CC[C@H]2[C@@H]3CCC4=CC(=O)C=C[C@]4(C)[C@H]3[C@@H](O)C[C@@]21C"
target_desc = "HeLa"
class_label = "inactive"

[[record]]
compound = "CC(=O)N(c1onc(C)c1C)S(=O)(=O)c1ccc(N)cc1"
target_desc = "HeLa"
class_label = "inactive"

[[record]]
compound = "CCCCCCCCCCCC[N+](C)(C)Cc1ccccc1"
target_desc = "HeLa"
class_label = "active"

[[record]]
compound = "CC(=O)[C@H]1CC[C@H]2[C@@H]3C=CC4=CC(=O)CC[C@@]4(C)[C@@H]3CC[C@]12C"
target_desc = "HeLa"
class_label = "inactive"

[[record]]
compound = "CC(C)(C)NCC(O)COc1ccccc1OCC1CCCO1 (stereo not given)"
target_desc = "HeLa"
class_label = "inactive"

[[record]]
compound = "CN(C)CCCOC1(Cc2ccccc2)CCCCCC1"
target_desc = "HeLa"
class_label = "inactive"

